- Tested on: Saccharomyces cerevisiae BY4741 SeMeCo community
- ASSAY_PROTOCOL: mean cell size (pixel area) (pixels); higher = larger cells
- EXPERIMENTAL_PARAMETERS: 10 µM; 24 h; SM minimal medium
Where a name gives a salt, the structure may show the parent alone.
I'd appreciate it if you could supply mean cell size values for the items below.
Numbers only.

Solved entries:
Query: Which mean cell size is listed for [O-][n+]1ccccc1[S-].[O-][n+]1ccccc1[S-].[Zn+2] [Zinc Pyrithione] ?
Response: 15.2

Query: Which mean cell size is listed for CC[C@H]1[C@@H]2C[C@H]3[C@@H]4N(C)c5ccccc5[C@]45C[C@@H]([C@@H]2[C@H]5O)N3[C@@H]1O [Ajmaline] ?
Response: 12.1

For every item in the list below, what is its measured mean cell size?
1. C=C[C@H]1CN2CC[C@H]1C[C@H]2[C@H](O)c1ccnc2ccccc12 [Cinchonidine]
2. C[N+](C)(C)CCCCCCCCCC[N+](C)(C)C [Decamethonium Bromide]
3. CCC1=C[C@H]2CN3CCc4c([nH]c5ccccc45)[C@](C(=O)OC)(C2)[C@H]13 [Catharanthine]
4. CCN1C[C@]2(OC(=O)c3ccccc3NC(C)=O)CC[C@H](OC)[C@@]34[C@@H]2C[C@@H]([C@@H]13)[C@@]1(O)C[C@H](OC)[C@H]2C[C@@H]4[C@]1(O)[C@H]2OC [Lappaconitine]
5. CC(=O)c1c(O)cc(C)oc1=O [Sodium dehydroacetate]

Response:
[12.5, 12.5, 12.5, 12.4, 12.3]

For every item in the list below, what is its measured mean cell size?
1. CN(C)C(=O)Oc1cccc([N+](C)(C)C)c1 [Neostigmine Bromide]
2. NCCc1c[nH]c2ccc(O)cc12 [Serotonin HCl]

Response:
1. 11.8
2. 12.2

====

- System: Saccharomyces cerevisiae BY4741 SeMeCo community
- ASSAY_PROTOCOL: z-score of subpopulation abundance vs DMSO median, subpopulation auxotrophic for HL; higher = larger share of this subpopulation than in DMSO controls
- EXPERIMENTAL_PARAMETERS: 10 µM; 24 h; SM minimal medium; subpopulation (auxotrophy): HL
Where a name gives a salt, the structure may show the parent alone.
Classes based on z-score of subpopulation abundance: lowest (below -0.3), middle (-0.3 to below 1), highest (1 or more)

// below: answered compounds
Query: Which category does the recorded z-score of subpopulation abundance put CN(C)C(=O)Oc1ccc[n+](C)c1 [Pyridostigmine Bromide] in?
Response: middle

Query: Which category does the recorded z-score of subpopulation abundance put CCOC(=O)Nc1ccc(NCc2ccc(F)cc2)cc1N [Retigabine 2HCl] in?
Response: highest

Query: Which category does the recorded z-score of subpopulation abundance put CC[C@H]1[C@@H]2C[C@H]3[C@@H]4N(C)c5ccccc5[C@]45C[C@@H]([C@@H]2[C@H]5O)N3[C@@H]1O in?
Response: lowest

Query: Which category does the recorded z-score of subpopulation abundance put COc1ccc2c(c1)[C@]13CCCC[C@@H]1[C@H](C2)N(C)CC3 [Dextromethorphan hydrobromide hydrate] in?
Response: lowest

Query: Which category does the recorded z-score of subpopulation abundance put Nc1ccncc1 in?
Response: middle

Query: Which category does the recorded z-score of subpopulation abundance put CN1C(=O)COc2c(C(=O)NC3CN4CCC3CC4)cc(Cl)cc21 (centres undefined) [Azasetron HCl] in?
Response: highest

Query: Which category does the recorded z-score of subpopulation abundance put COc1ccc2c3c([nH]c2c1)C(C)=NCC3 in?
Response: highest

Query: Which category does the recorded z-score of subpopulation abundance put CN1[C@@H]2CC[C@H]1C[C@@H](OC(=O)C(CO)c1ccccc1)C2 (some centres undefined) [Atropine sulfate monohydrate] in?
Response: lowest

Next up:
Query: Which category does the recorded z-score of subpopulation abundance put CCCCCCCCCCCCCCCC[n+]1ccccc1 [Cetylpyridinium Chloride] in?
Response: highest

====

- System: Saccharomyces cerevisiae BY4741 SeMeCo community
- ASSAY_PROTOCOL: z-score of prototroph abundance vs DMSO median; higher = larger share of this subpopulation than in DMSO controls
- EXPERIMENTAL_PARAMETERS: 10 µM; 24 h; SM minimal medium; subpopulation (auxotrophy): Prototroph
Where a name gives a salt, the structure may show the parent alone.
Classes based on z-score of prototroph abundance: low end: < 0; middle: ≥ 0 and < 0.4; high end: ≥ 0.4

Query: Which category does the recorded z-score of prototroph abundance put CN(C)C(=O)Oc1cccc([N+](C)(C)C)c1 [Neostigmine Bromide] in?
Response: middle

Query: Which category does the recorded z-score of prototroph abundance put CC(C)N(CCC(C(N)=O)(c1ccccc1)c1ccccn1)C(C)C (centres undefined) [Disopyramide] in?
Response: low end

Query: Which category does the recorded z-score of prototroph abundance put N[C@@H]1C[C@H]1c1ccccc1 [Tranylcypromine (2-PCPA) HCl] in?
Response: high end

Query: Which category does the recorded z-score of prototroph abundance put CCN1CC2(OC(=O)c3ccccc3NC(C)=O)CCC(OC)C34C1C(CC23)C1(O)CC(OC)C2CC4C1(O)C2OC (centres undefined) in?
Response: middle

Query: Which category does the recorded z-score of prototroph abundance put CNC1CC(N)C(O)C(OC2OC(CO)C(O)C3OC4(OC(C(N)CO)C(O)C(O)C4O)OC23)C1O (centres undefined) in?
Response: high end

Query: Which category does the recorded z-score of prototroph abundance put CN[C@@H]1[C@@H](O)[C@@H](O[C@@H]2[C@@H](O)[C@H](O[C@H]3O[C@H]([C@@H](C)O)[C@@H](O)[C@H](O)[C@H]3N)[C@@H](N)C[C@H]2N)OC[C@]1(C)O [Geneticin (G418 Sulfate)] in?
Response: middle

Query: Which category does the recorded z-score of prototroph abundance put CC1(C)SC2C(N)C(=O)N2C1C(=O)O (centres undefined) in?
Response: middle

Query: Which category does the recorded z-score of prototroph abundance put COc1ccc(C=O)cc1 in?
Response: high end

Further cases:
Query: Which category does the recorded z-score of prototroph abundance put CN1[C@@H]2C[C@@H](OC(=O)[C@H](CO)c3ccccc3)C[C@H]1[C@@H]1O[C@@H]12 [Scopolamine HBr trihydrate] in?
Response: high end

Query: Which category does the recorded z-score of prototroph abundance put CCN(CC)CCOC(=O)C(O)(c1ccccc1)c1ccccc1 [Benactyzine hydrochloride] in?
Response: low end

Query: Which category does the recorded z-score of prototroph abundance put NCCc1c[nH]c2ccc(O)cc12 [Serotonin HCl] in?
Response: high end

Query: Which category does the recorded z-score of prototroph abundance put CN1C(=O)COc2c(C(=O)NC3CN4CCC3CC4)cc(Cl)cc21 (centres undefined) [Azasetron HCl] in?
Response: high end

Query: Which category does the recorded z-score of prototroph abundance put C[C@H]1O[C@H](O[C@H]2[C@H](O)[C@@H](O)[C@@H](O)[C@H](O)[C@@H]2O)[C@@H](N)C[C@@H]1NC(=N)C(=O)O [Kasugamycin hydrochloride] in?
Response: middle

====

- System: Saccharomyces cerevisiae BY4741 SeMeCo community
- ASSAY_PROTOCOL: z-score of subpopulation abundance vs DMSO median, subpopulation auxotrophic for HLU; higher = larger share of this subpopulation than in DMSO controls
- EXPERIMENTAL_PARAMETERS: 10 µM; 24 h; SM minimal medium; subpopulation (auxotrophy): HLU
MEASURED_ENDPOINT: z-score of subpopulation abundance
Answers are plain numbers.

Solved entries:
Query: Which z-score of subpopulation abundance is listed for CN1[C@@H]2CC[C@H]1C[C@@H](OC(=O)[C@H](CO)c1ccccc1)C2 ?
Response: 0.2

Query: Which z-score of subpopulation abundance is listed for CC[C@H]1[C@@H]2C[C@H]3[C@@H]4N(C)c5ccccc5[C@]45C[C@@H]([C@@H]2[C@H]5O)N3[C@@H]1O ?
Response: -0.63

For every item in the list below, what is its measured z-score of subpopulation abundance?
1. CCOC(=O)Nc1ccc(NCc2ccc(F)cc2)cc1N [Retigabine 2HCl]
2. CC[C@@H](C(N)=O)N1CCCC1=O

Response:
[-0.42, -0.28]

====

- System: Saccharomyces cerevisiae BY4741 SeMeCo community
- ASSAY_PROTOCOL: z-score of subpopulation abundance vs DMSO median, subpopulation auxotrophic for HLU; higher = larger share of this subpopulation than in DMSO controls
- EXPERIMENTAL_PARAMETERS: 10 µM; 24 h; SM minimal medium; subpopulation (auxotrophy): HLU
Counter-ions that a name gives are not always drawn.
I'd appreciate it if you could supply z-score of subpopulation abundance values for the items below.

Solved entries:
Query: Which z-score of subpopulation abundance is listed for C[C@H]1O[C@H](O[C@H]2[C@H](O)[C@@H](O)[C@@H](O)[C@H](O)[C@@H]2O)[C@@H](N)C[C@@H]1NC(=N)C(=O)O [Kasugamycin hydrochloride] ?
Response: 0.46

Query: Which z-score of subpopulation abundance is listed for CC[C@H]1CN2CC[C@]3(C(=O)Nc4ccccc43)[C@@H]2C[C@@H]1/C(=C\OC)C(=O)OC ?
Response: 0.21

Query: Which z-score of subpopulation abundance is listed for CNC1CC(N)C(O)C(OC2OC(CO)C(O)C3OC4(OC(C(N)CO)C(O)C(O)C4O)OC23)C1O (stereo unspecified) ?
Response: -0.44

For every item in the list below, what is its measured z-score of subpopulation abundance?
1. C=CCN1C[C@H](C(=O)N(CCCN(C)C)C(=O)NCC)C[C@@H]2c3cccc4[nH]cc(c34)C[C@H]21
2. Oc1cccc2cccnc12 [8-Hydroxyquinoline]
3. CC[C@@]1(O)C(=O)OCc2c1cc1n(c2=O)Cc2cc3ccccc3nc2-1

Response:
[-0.08, -0.85, -0.42]
